# study target: Choline kinase alpha (Homo sapiens, UniProt P35790)
# Sequence (P35790 whole entry): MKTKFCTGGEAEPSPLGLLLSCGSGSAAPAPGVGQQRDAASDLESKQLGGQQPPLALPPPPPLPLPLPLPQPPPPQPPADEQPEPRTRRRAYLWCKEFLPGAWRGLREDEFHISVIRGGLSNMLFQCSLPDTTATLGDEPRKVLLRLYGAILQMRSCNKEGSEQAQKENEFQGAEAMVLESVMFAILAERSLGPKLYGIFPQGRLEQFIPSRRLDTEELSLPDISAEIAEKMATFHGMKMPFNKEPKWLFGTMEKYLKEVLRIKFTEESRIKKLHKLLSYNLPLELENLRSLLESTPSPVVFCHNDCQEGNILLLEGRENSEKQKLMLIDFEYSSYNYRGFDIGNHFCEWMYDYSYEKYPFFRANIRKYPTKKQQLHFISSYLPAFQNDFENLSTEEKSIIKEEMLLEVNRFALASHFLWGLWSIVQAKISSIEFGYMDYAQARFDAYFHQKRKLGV
# test protocol: Inhibition of human Choline kinase alpha 1 incubated for 10 mins by liquid-scintillation counter analysis
# experimental context: read-out: IC50
parameter: IC50 (nM)

Worked examples, 2 molecules total:
input smiles	value unit	IC50
c1cc2c(N3CCCCCC3)cc[n+](Cc3ccc(SCCSc4ccc(C[n+]5ccc(N6CCCCCC6)c6ccsc65)cc4)cc3)c2s1	nM	660
CN(c1ccc(Cl)cc1)c1cc[n+](Cc2ccc(SCCSc3ccc(C[n+]4ccc(N(C)c5ccc(Cl)cc5)c5ccsc54)cc3)cc2)c2sccc12	nM	710

I. c1cc2c(s1)c(N1CCCC1)cc[n+]2Cc1ccc(SCCSc2ccc(C[n+]3ccc(N4CCCC4)c4sccc43)cc2)cc1
II. CN(C)c1cc[n+](Cc2ccc(SSc3ccc(C[n+]4ccc(N(C)C)cc4)cc3)cc2)cc1
### Prompt Input pair: I , II . Output: entry with lower IC50. Field: selected label. Fill in the label of the entry you choose.
### Response II
(II: 640 nM, I: 1010 nM)

----------
# study target: Choline kinase alpha (Homo sapiens, UniProt P35790)
# test protocol: Inhibition of human Choline kinase alpha 1 incubated for 10 mins by liquid-scintillation counter analysis
# experimental context: read-out: IC50
pIC50: −log10 of the molar value.
parameter: pIC50

input smiles	study target	pIC50
c1cc2c(s1)c(N1CCCC1)cc[n+]2Cc1ccc(SSc2ccc(C[n+]3ccc(N4CCCC4)c4sccc43)cc2)cc1	Choline kinase alpha (Homo sapiens, UniProt P35790)	6.46

P. c1cc(SSc2ccc(C[n+]3ccc(N4CCCC4)cc3)cc2)ccc1C[n+]1ccc(N2CCCC2)cc1
Q. Clc1ccc2c(N3CCCC3)cc[n+](Cc3ccc(SSc4ccc(C[n+]5ccc(N6CCCC6)c6ccc(Cl)cc65)cc4)cc3)c2c1
### Prompt Which numeric pIC50 is bigger, that of P or that of Q ? Please respond with the label that marks your chosen entry.
### Response P

----------
# study target: Choline kinase alpha (Homo sapiens, UniProt P35790)
# test protocol: Inhibition of human Choline kinase alpha 1 incubated for 10 mins by liquid-scintillation counter analysis
# experimental context: read-out: IC50
parameter: IC50 (nM)

input smiles	observed measurement
CN(c1ccc(Cl)cc1)c1cc[n+](Cc2ccc(SCCSc3ccc(C[n+]4ccc(N(C)c5ccc(Cl)cc5)c5ccccc54)cc3)cc2)c2ccccc12	1020
[Br-].[Br-].c1cc2c(s1)c(N1CCCC1)nc[n+]2Cc1ccc(SCCSc2ccc(C[n+]3cnc(N4CCCC4)c4sccc43)cc2)cc1	1350
CN(c1ccccc1)c1cc[n+](Cc2ccc(SCCSc3ccc(C[n+]4ccc(N(C)c5ccccc5)c5ccsc54)cc3)cc2)c2sccc12	1430
